Molecular target: DR1001
Assay: Peptide-MHCII competition binding assay, DR1001
Details: biotinylated and non-biotinylated versions of the reference peptide; read-out: Binding affinity of reference peptide (IC50), DRB1*1001
PROPERTY NAME: IC50

[[record]]
polymer_sequence = "TT 560-571: reference peptide for DRB1*1001 binding (IYQYLYAQKSPT; UniProt P04958 560-571, looked up, fragment)"
meas_value = "200 nM"


---

Biological target: HLA-DR0301 (Homo sapiens, UniProt P01903+P01911, A100K/A102G/A103R/A169T/F55Y/I96L/K41T/L162R/M171V/P40S/Q125H/Q178H/Q39Y/R42S/S66N/T106N/T262R/W38E/Y61H)
Construct: Recombinant, extracellular domains of 10 HLA-DRB1 protein monomers; purchased Tetramer Core Facility, Benaroya Research Institute
Assay: Peptide-MHCII competition binding assay, DR0301
Conditions: competition with biotinylated reference peptide Myo 137-148; HLA-DRB1 50 nM, pH 5.4, 37°C 18-24 h, Eu-streptavidin fluorescence, triplicate wells; read-out: Experimental binding affinity (IC50), DR0301
No end group written: not given here.
IC50 listing for selected sequences.
PROPERTY NAME: IC50

[[record]]
polymer_sequence = "STGTLMVFFGNVDSSGIKHN [2119-2138]"
meas_value = "> 50 µM"

[[record]]
polymer_sequence = "IMYSLDGKKWQTYRGNSTGT [2103-2122]"
meas_value = "61.2 µM"

[[record]]
polymer_sequence = "FGNVDSSGIKHNIGNPPIIA [2127-2146]"
meas_value = "> 50 µM"

